Biological target: T1, Soluble recombinant human urokinase receptor (suPAR) (human, UniProt Q03405 23-299, limits assumed, biotinylated in the plate assays (sites not given))
T1 construct: Only called a soluble truncated form of the urokinase receptor; also called soluble uPAR; biotinylated suPAR
T1 sequence (Q03405 23-299 limits assumed): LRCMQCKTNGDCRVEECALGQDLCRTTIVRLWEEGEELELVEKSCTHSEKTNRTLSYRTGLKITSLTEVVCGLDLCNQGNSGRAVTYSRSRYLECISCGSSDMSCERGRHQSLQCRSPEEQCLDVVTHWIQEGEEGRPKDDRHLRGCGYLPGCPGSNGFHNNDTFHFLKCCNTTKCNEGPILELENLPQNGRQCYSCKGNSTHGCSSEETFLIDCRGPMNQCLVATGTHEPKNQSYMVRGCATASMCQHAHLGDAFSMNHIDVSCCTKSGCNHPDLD
Assay: competition with phage displaying peptide 25 for soluble uPAR
Square brackets hold non-standard residues; d marks the D form. Ends that are not written are not given here.
assay-readout: % Inhibition at 5 uM (%)
State just the number; it will be interpreted in %.

Input: Item under review: AESTYHHLSLGYMYT[dL]N-NH2 (N-terminus assumed; SMILES CSCC[C@H](NC(=O)[C@H](Cc1ccc(O)cc1)NC(=O)CNC(=O)[C@H](CC(C)C)NC(=O)[C@H](CO)NC(=O)[C@H](CC(C)C)NC(=O)[C@H](Cc1c[nH]cn1)NC(=O)[C@H](Cc1c[nH]cn1)NC(=O)[C@H](Cc1ccc(O)cc1)NC(=O)[C@@H](NC(=O)[C@H](CO)NC(=O)[C@H](CCC(=O)O)NC(=O)[C@H](C)N)[C@@H](C)O)C(=O)N[C@@H](Cc1ccc(O)cc1)C(=O)N[C@H](C(=O)N[C@H](CC(C)C)C(=O)N[C@@H](CC(N)=O)C(N)=O)[C@@H](C)O) [Analog 60] . Reported % Inhibition at 5 uM?
Output: 75
